# ASSAYED TARGET: human TREK-1 (Homo sapiens (Human))
# Sequence (O95069 whole entry): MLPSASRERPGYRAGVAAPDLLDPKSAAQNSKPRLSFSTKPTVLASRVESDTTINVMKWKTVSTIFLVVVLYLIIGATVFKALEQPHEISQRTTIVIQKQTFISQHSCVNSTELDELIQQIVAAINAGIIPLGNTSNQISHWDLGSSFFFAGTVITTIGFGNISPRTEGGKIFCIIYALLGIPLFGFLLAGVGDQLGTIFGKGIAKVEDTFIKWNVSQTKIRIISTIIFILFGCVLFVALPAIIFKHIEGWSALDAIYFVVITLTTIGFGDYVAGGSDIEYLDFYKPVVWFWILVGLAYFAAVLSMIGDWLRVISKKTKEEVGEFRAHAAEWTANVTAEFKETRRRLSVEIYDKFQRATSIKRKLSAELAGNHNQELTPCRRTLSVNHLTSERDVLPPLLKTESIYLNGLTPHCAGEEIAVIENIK
# ASSAY METHOD TEXT: TREK-1 Thallium (Tl+) flux assay
# CONDITIONS: CHO-K1 cells stably expressing human TREK-1
pIC50: −log10 of the molar value.
Listed here: items and their measured pIC50.

>  <MOLECULE>
Cc1cc(C#Cc2ccc(F)cc2)cnc1NC(=O)c1cc(NC(=O)C2CCO2)ccc1Cl (centres unmarked) [Compound 12]

>  <ASSAYED TARGET>
human TREK-1 (Homo sapiens (Human))

>  <pIC50>
6.51

$$$$
>  <MOLECULE>
Cc1cc(C#Cc2ccccc2)cnc1NC(=O)c1cc(OCCN2CCOCC2)ccc1Cl [Compound 84]

>  <ASSAYED TARGET>
human TREK-1 (Homo sapiens (Human))

>  <pIC50>
6.38

$$$$
>  <MOLECULE>
O=C(Nc1ncc(C#Cc2ccc(F)cc2)cc1F)c1cc(NC(=O)C2CC2)ccc1Cl [Compound 7]

>  <ASSAYED TARGET>
human TREK-1 (Homo sapiens (Human))

>  <pIC50>
6.82

$$$$
>  <MOLECULE>
Cc1cc(OCc2ccccc2)ccc1NC(=O)c1ccc(N)cc1Cl [Compound 89]

>  <ASSAYED TARGET>
human TREK-1 (Homo sapiens (Human))

>  <pIC50>
5.12

$$$$
>  <MOLECULE>
Cc1cc(C#Cc2ccccc2)cnc1NC(=O)c1cc(-c2cn(C)nc2C)ccc1Cl [Compound 74]

>  <ASSAYED TARGET>
human TREK-1 (Homo sapiens (Human))

>  <pIC50>
6.39

$$$$
>  <MOLECULE>
Cc1cc(COc2ccccc2)ccc1NC(=O)c1cc(NC(=O)OC(C)(C)C)ccc1Cl [Compound 26]

>  <ASSAYED TARGET>
human TREK-1 (Homo sapiens (Human))

>  <pIC50>
6.17

$$$$
>  <MOLECULE>
C[C@H]1C[C@@H]1C(=O)Nc1ccc(Cl)c(C(=O)Nc2ncc(C#Cc3ccccc3)cc2F)c1 [Compound 2]

>  <ASSAYED TARGET>
human TREK-1 (Homo sapiens (Human))

>  <pIC50>
7.05

$$$$
>  <MOLECULE>
Cc1cc(OCc2ccccc2)cc(C)c1NC(=O)c1cc(NC(=O)OC(C)(C)C)ccc1Cl [Compound 88]

>  <ASSAYED TARGET>
human TREK-1 (Homo sapiens (Human))

>  <pIC50>
6.44

$$$$
